biological target: human Siglec-15 V-set domain (human) (UniProt Q6ZMC9); test: SPR (Biacore T200), antibody captured via anti-human IgG, antigen as analyte, same manner as 10-1
class 1 if Kd is below 8 pM. class 0 if not; exact matches included in class 0.

Answered cases to consult:
{"columns": ["Binder", "Label"],
 "data": [
  ["h#24A3-H2/L2 (antibody, human IgG2, kappa, V domains shown) VH: QVQLVQSGAEVKKPGASVKVSCKASGYTFPRYDVSWVRQAPGQGLEWMGVIHPGSGGTGYNEKFKARVTITADTSTSTAYMELSSLRSEDTAVYYCARRGLNSGYWFFDFWGQGTLVTVSS VL: DIVMTQSPDSLAVSLGERATINCKASQNVGSNVDWYQQKPGQSPKLLIYESTNRYTGVPDRFSGSGSGTDFTFTISSLQAEDVAVYYCMQSNFFPFTFGQGTKVEIKR", "class 0"],
  ["h#24A3-H2e/L3b (antibody, human IgG2, kappa, V domains shown) VH: QVQLVQSGAEVKKPGASVKVSCKASGYTFPRYDVSWVRQAPGQGLEWMGVIHPGSGGTGYNEKFKARVTITVDTSTSTAYMELSSLRSEDTAVYYCARRGLNKGYWFFDFWGQGTLVTVSS VL: DIVMTQSPDSLAVSLGERATINCKASQNVGSNVDWYQQKPGQSPKLLIYESTNRYTGVPDRFTGSGSGTDFTLTISSLQAEDVAVYYCMQSNFFPFTFGQGTKVEIKR", "class 0"],
  ["h#24A3-H2e/L2b (antibody, human IgG2, kappa, V domains shown) VH: QVQLVQSGAEVKKPGASVKVSCKASGYTFPRYDVSWVRQAPGQGLEWMGVIHPGSGGTGYNEKFKARVTITVDTSTSTAYMELSSLRSEDTAVYYCARRGLNKGYWFFDFWGQGTLVTVSS VL: DIVMTQSPDSLAVSLGERATINCKASQNVGSNVDWYQQKPGQSPKLLIYESTNRYTGVPDRFSGSGSGTDFTLTISSLQAEDVAVYYCMQSNFFPFTFGQGTKVEIKR", "class 0"],
  ["h#24A3-H2/L3 (antibody, human IgG2, kappa, V domains shown) VH: QVQLVQSGAEVKKPGASVKVSCKASGYTFPRYDVSWVRQAPGQGLEWMGVIHPGSGGTGYNEKFKARVTITADTSTSTAYMELSSLRSEDTAVYYCARRGLNSGYWFFDFWGQGTLVTVSS VL: DIVMTQSPDSLAVSLGERATINCKASQNVGSNVDWYQQKPGQSPKLLIYESTNRYTGVPDRFTGSGSGTDFTFTISSLQAEDVAVYYCMQSNFFPFTFGQGTKVEIKR", "class 0"]
]}

Here's an entry: h#24A3-H2d/L1 (antibody, human IgG2, kappa, V domains shown) VH: QVQLVQSGAEVKKPGASVKVSCKASGYTFPRYDVSWVRQAPGQGLEWMGVIHPGSGGTGYNEKFKARATITADTSTSTAYMELSSLRSEDTAVYYCARRGLNKGYWFFDFWGQGTLVTVSS VL: DIVMTQSPDSLAVSLGERATINCKASQNVGSNVDWYQQKPGQPPKLLIYESTNRYTGVPDRFSGSGSGTDFTLTISSLQAEDVAVYYCMQSNFFPFTFGQGTKVEIKR . Is its Kd below 8 pM?
class 1

Now this one: h#24A3-H2b/L1 (antibody, human IgG2, kappa, V domains shown) VH: QVQLVQSGAEVKKPGASVKVSCKASGYTFPRYDVSWVRQAPGQGLEWMGVIHPGSGGTGYNEKFKARVTITADTSTSTAYMELSSLRSEDTAVYYCARRGLNKGYWFFDFWGQGTLVTVSS VL: DIVMTQSPDSLAVSLGERATINCKASQNVGSNVDWYQQKPGQPPKLLIYESTNRYTGVPDRFSGSGSGTDFTLTISSLQAEDVAVYYCMQSNFFPFTFGQGTKVEIKR
class 0

Record: h#24A3-H2b/L3b (antibody, human IgG2, kappa, V domains shown) VH: QVQLVQSGAEVKKPGASVKVSCKASGYTFPRYDVSWVRQAPGQGLEWMGVIHPGSGGTGYNEKFKARVTITADTSTSTAYMELSSLRSEDTAVYYCARRGLNKGYWFFDFWGQGTLVTVSS VL: DIVMTQSPDSLAVSLGERATINCKASQNVGSNVDWYQQKPGQSPKLLIYESTNRYTGVPDRFTGSGSGTDFTLTISSLQAEDVAVYYCMQSNFFPFTFGQGTKVEIKR
class 1

And for h#24A3-H2d/L2b (antibody, human IgG2, kappa, V domains shown) VH: QVQLVQSGAEVKKPGASVKVSCKASGYTFPRYDVSWVRQAPGQGLEWMGVIHPGSGGTGYNEKFKARATITADTSTSTAYMELSSLRSEDTAVYYCARRGLNKGYWFFDFWGQGTLVTVSS VL: DIVMTQSPDSLAVSLGERATINCKASQNVGSNVDWYQQKPGQSPKLLIYESTNRYTGVPDRFSGSGSGTDFTLTISSLQAEDVAVYYCMQSNFFPFTFGQGTKVEIKR ?
class 0

Now the same for h#24A3-H2d/L3b (antibody, human IgG2, kappa, V domains shown) VH: QVQLVQSGAEVKKPGASVKVSCKASGYTFPRYDVSWVRQAPGQGLEWMGVIHPGSGGTGYNEKFKARATITADTSTSTAYMELSSLRSEDTAVYYCARRGLNKGYWFFDFWGQGTLVTVSS VL: DIVMTQSPDSLAVSLGERATINCKASQNVGSNVDWYQQKPGQSPKLLIYESTNRYTGVPDRFTGSGSGTDFTLTISSLQAEDVAVYYCMQSNFFPFTFGQGTKVEIKR
class 1

Next record, please: h#24A3-H2b/L2b (antibody, human IgG2, kappa, V domains shown) VH: QVQLVQSGAEVKKPGASVKVSCKASGYTFPRYDVSWVRQAPGQGLEWMGVIHPGSGGTGYNEKFKARVTITADTSTSTAYMELSSLRSEDTAVYYCARRGLNKGYWFFDFWGQGTLVTVSS VL: DIVMTQSPDSLAVSLGERATINCKASQNVGSNVDWYQQKPGQSPKLLIYESTNRYTGVPDRFSGSGSGTDFTLTISSLQAEDVAVYYCMQSNFFPFTFGQGTKVEIKR
class 0
